- System: IFN induction in cGAMP-stimulated THP1 cells
- experiment_description: cGAMP stimulated counter cell assay in THP1-Dual cells (THP1(cGAMP) IC50)
- Assay type: cell-based, human
- condition_set: Homo sapiens, THP-1; Table 1; counter assay, 10 μM cGAMP stimulation; read-out: THP(cGAMP) IC50
quantity: IC50 (µM)
The reply should contain only the number, in µM.

Solved cases below.
{"compound": "C[C@H]1CN2CC[C@@H]1n1c(nc3cc(Cl)ccc31)O[C@H]1C[C@@H](C(=O)O)N(C1)c1nc(nc3c1oc1ccccc13)C(F)(F)CCCCCC2=O [Example 1.12]", "IC50 [µM]": 3.6}
{"compound": "C[C@@H]1CC(=O)N2CCC(CC2)n2c(nc3ccccc32)O[C@H]2C[C@@H](C(=O)O)N(C2)c2nc(nc3c2oc2ccccc23)CCCO1 [Example 7.01]", "IC50 [µM]": 3.5}

Inquiry: What IC50 value was documented for this compound, C[C@H]1CN2CC[C@@H]1n1c(nc3cc(F)ccc31)O[C@H]1C[C@@H](C(=O)O)N(C1)c1nc(nc3c1oc1ccccc13)C(F)(F)CCCCC(F)(F)C2=O [Example 1.18] ?
Reply text: 10
